Test system: CAKI-1 renal
Assay: NCI tumour cell line growth inhibition, 48 h
quantity.measured: TGI

>  <compound>
COC(=O)[C@H](Cc1ccccc1)NC(=O)c1ccc(CNC(=O)/C=C/c2csc(-c3ccccc3)n2)cc1

>  <TGI>
> 28.7 µM

$$$$
>  <compound>
CCCCCCCCOCC(COC(=O)CCCCCCC)OC(=O)CCCCCCC (configuration not stated)

>  <TGI>
> 100 µM

$$$$
>  <compound>
COc1ccc2nc3c(c(N)c2c1)C1CCC3C1(C)C (configuration not stated)

>  <TGI>
> 100 µM

$$$$
>  <compound>
CC(=O)OC1COC(N2CCc3cc([N+](=O)[O-])ccc32)C(OC(C)=O)C1OC(C)=O (configuration not stated)

>  <TGI>
> 100 µM

$$$$
>  <compound>
COc1ccc(OC)c2sc(N3C(=O)/C(=C/c4cccc(Oc5ccccc5)c4)N=C3c3ccccc3)nc12

>  <TGI>
> 100 µM

$$$$

Request: If you can, please state the reported TGI value of CN(C)c1ccc(-c2cc(-c3ccc(Nc4nc(Nc5ccc(Cl)cc5)nc(Nc5ccc(Cl)cc5)n4)cc3)nc(N)c2C#N)cc1 .
Response: > 100 µM

Request: If you can, please state the reported TGI value of CCOC(=O)c1c(NC(=O)c2ccccc2)c(C#N)c2n1CCCCC2 .
Response: > 100 µM

Request: If you can, please state the reported TGI value of C[C@H](C(=O)O)C(=O)NC(=O)N(Cc1ccccc1)N=O .
Response: > 100 µM

Request: If you can, please state the reported TGI value of O=[N+]([O-])c1ccc(-c2ccc(C3=Nn4c(CNc5ccccc5Cl)nnc4SC3)o2)cc1 .
Response: > 100 µM

Request: If you can, please state the reported TGI value of Nc1nc(=S)c2c(ncn2CCO)[nH]1 .
Response: > 100 µM

Request: If you can, please state the reported TGI value of Cc1nc2sc3cccc(Cl)c3n2c(=O)c1N=Nc1ccc(Cl)cc1 .
Response: > 100 µM

Request: If you can, please state the reported TGI value of CC(=O)c1ccc(Nc2c3c(nc4ccccc24)CCCC3)cc1 .
Response: > 44 µM

###

Tested on: T-47D breast
Test: NCI tumour cell line growth inhibition, 48 h
quantity.measured: TGI

Request: If you can, please state the reported TGI value of COC(CN(C)C(=S)Nc1cccc2ccccc12)OC .
Response: > 10 µM

Request: If you can, please state the reported TGI value of Cc1ccc(OCC2OC(n3cnc4c(Cl)nc(Nc5cc(Cl)cc(Cl)c5)nc43)CC2Oc2ccc(C)cc2)cc1 (stereo unspecified) .
Response: > 100 µM

Request: If you can, please state the reported TGI value of c1cc(-c2ccc(-c3ccsc3)s2)cs1 .
Response: > 100 µM

###

Tested on: DU-145 prostate
Assay: NCI tumour cell line growth inhibition, 48 h
Quick list: TGI per entry.

Please review the following examples before continuing.
>  <molecule>
Cc1nc2c(sc3nc4c(cc32)CCC4)c(=O)o1

>  <TGI>
> 100 µM

$$$$
>  <molecule>
CCN(/C=C1/C(=O)C(c2ccccc2)N(c2ccccc2)C1=O)CC (stereo unspecified)

>  <TGI>
> 10 µM

$$$$
>  <molecule>
O=C(CSCC(=O)N/N=C/c1cccc(O)c1)N/N=C/c1cccc(O)c1

>  <TGI>
> 100 µM

$$$$
>  <molecule>
CCCCS(=O)c1sc2nc(-c3cccs3)cc(-c3ccccc3)c2c1N (stereo unspecified)

>  <TGI>
> 100 µM

$$$$
>  <molecule>
CCOC(=O)c1c2c(n(-c3ccc(C)cc3)c1C)-c1ccccc1C(=O)C2(C(=O)OCC)C(=O)OCC

>  <TGI>
> 100 µM

$$$$

Request: Provide the documented TGI with DU-145 prostate as the system for COc1cc(C2c3cc4c(cc3OC(NN)C2C)OCO4)cc(OC)c1O (stereo unspecified)
Response: > 100 µM

// data source = PubChem BioAssay (NCI)
